What pIC50 was measured for each of the following?
# TARGET_SYSTEM: Mitogen-activated protein kinase 14 (Homo sapiens, UniProt Q16539)
# Sequence (Q16539 whole entry): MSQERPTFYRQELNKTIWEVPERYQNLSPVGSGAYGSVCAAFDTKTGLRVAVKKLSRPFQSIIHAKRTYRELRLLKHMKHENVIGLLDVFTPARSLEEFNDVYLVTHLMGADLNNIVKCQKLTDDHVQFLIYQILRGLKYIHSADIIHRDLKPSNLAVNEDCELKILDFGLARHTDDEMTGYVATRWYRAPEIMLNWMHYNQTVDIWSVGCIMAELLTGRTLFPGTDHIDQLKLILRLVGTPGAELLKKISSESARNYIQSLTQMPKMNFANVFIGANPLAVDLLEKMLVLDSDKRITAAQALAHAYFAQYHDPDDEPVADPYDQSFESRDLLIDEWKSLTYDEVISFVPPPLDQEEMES
# EXPERIMENT_NOTES: Inhibition of p38alpha kinase using KRELVEPLTPSGEAPNQALLR as substrate for 20 mins by lactate dehydrogenase-coupled spectrophotometric assay
Lab note: report pIC50 as minus log10 of the concentration in molar units, number only.

Problem: I'd like to know its pIC50. The compound in question is Cc1ccc(Sc2ccc3c(-c4c(Cl)cccc4Cl)c(=O)ncn3n2)c(C)c1
Result: 6.59

Problem: Query Cc1cccc(Sc2ccc3c(-c4c(Cl)cccc4Cl)c(=O)ncn3n2)c1 next
Result: 5.85

Problem: Please give the result for Nc1cc(F)ccc1Sc1ccc2c(-c3c(Cl)cccc3Cl)c(=O)ncn2n1 too.
Result: 6.66

Problem: Follow-up entry: CCc1ccccc1Sc1ccc2c(-c3c(Cl)cccc3Cl)c(=O)ncn2n1
Result: 6.12

Problem: What would you report for Cc1cc(Cl)ccc1Sc1ccc2c(-c3c(Cl)cccc3Cl)c(=O)ncn2n1 ?
Result: 6.74

Problem: Query O=c1ncn2nc(Sc3ccc(F)cc3)ccc2c1-c1c(Cl)cccc1Cl next
Result: 6.91

Problem: Same for O=c1ncn2nc(Sc3ccccc3)ccc2c1-c1c(F)cccc1F
Result: 5.46

Problem: Moving on to the next compound: O=c1ncn2nc(Sc3ccc(F)c(Cl)c3)ccc2c1-c1c(Cl)cccc1Cl
Result: 6.30

These entries and their values trace back to ChEMBL document CHEMBL2021894.
